Values from patent US20230183291A1

The entries below are paired with their reported pKd.
Biological target: T1, Biotinylated Human ACE2, His, Avitag protein (ACROBiosystems, AC2-H82E6) (human, UniProt Q9BYF1 18-740)
T1 construct: also called biotinylated ACE2; ACE2 protein; not shown: His tag and Avitag
T1 sequence (Q9BYF1 18-740 limits assumed): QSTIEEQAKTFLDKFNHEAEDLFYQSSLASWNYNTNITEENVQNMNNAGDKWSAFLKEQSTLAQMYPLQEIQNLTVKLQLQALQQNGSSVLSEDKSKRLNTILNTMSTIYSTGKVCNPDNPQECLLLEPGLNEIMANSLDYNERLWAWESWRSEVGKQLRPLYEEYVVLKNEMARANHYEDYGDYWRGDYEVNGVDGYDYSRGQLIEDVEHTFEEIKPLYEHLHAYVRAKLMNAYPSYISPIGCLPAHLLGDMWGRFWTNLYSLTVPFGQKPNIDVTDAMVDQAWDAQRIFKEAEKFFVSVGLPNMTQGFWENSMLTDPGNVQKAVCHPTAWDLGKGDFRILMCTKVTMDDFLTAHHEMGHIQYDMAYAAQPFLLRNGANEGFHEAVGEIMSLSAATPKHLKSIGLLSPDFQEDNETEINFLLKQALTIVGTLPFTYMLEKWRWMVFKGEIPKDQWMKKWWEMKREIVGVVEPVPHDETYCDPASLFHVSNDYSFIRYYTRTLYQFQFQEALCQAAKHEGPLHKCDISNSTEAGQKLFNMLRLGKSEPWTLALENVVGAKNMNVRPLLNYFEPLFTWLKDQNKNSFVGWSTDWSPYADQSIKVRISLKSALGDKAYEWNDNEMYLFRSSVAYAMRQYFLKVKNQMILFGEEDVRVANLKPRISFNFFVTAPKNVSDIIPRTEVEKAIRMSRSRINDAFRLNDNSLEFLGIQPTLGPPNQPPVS
Test: SPR single cycle kinetics, ACE2 captured on CAP chip, peptide analyte; geometric mean
Description: Binding of bicyclic peptides of the invention to Biotinylated Human ACE2, His, Avitag™ protein (ACROBiosystems, AC2-H82E6) was assessed by a SCK analysis. Experiments were performed at 25° C. on a Biacore T200 (Cytiva) running Biacore T200 Control software V2.0.1 and Evaluation software V3.0 (Cytiva). HBS-EP+ (Cytiva) was used as running buffer as well as for ligand and analyte dilutions. […]
Numbered stars: 1 amine (or outer) side, 2 acyl side, 3 side chain; on linkers, the order of the positions; unused ones are H or OH. Bridge positions count the residues as written; N and C are the ends. Square brackets hold non-standard residues; d marks the D form. Ends that are not written are not given here. TATA = O=C(CC[*:1])N1CN(C(=O)CC[*:2])CN(C(=O)CC[*:3])C1; Phe(3-Cl) = N[C@@H](Cc1cccc(Cl)c1)C(=O)O; Phe(2-F) = N[C@@H](Cc1ccccc1F)C(=O)O; tBuAla = CC(C)(C)C[C@H](N)C(=O)O; Agb = N=C(N)NCC[C@H](N)C(=O)O
Just so you know, pKd here is -log10 of the concentration in molar units; reply with that number alone.

Example entries begin here.
ACNAVLCSWA[Agb]ANSFCA (linker 2-7-16 via TATA, bicyclic peptide, TATA scaffold) [BCY17689] = 8.33
ACNTLYKCWRGKCA (linker 2-8-13 via TATA, bicyclic peptide, TATA scaffold) [BCY17155] = 6.97
ACNAV[tBuAla]CSWARANSFCA (linker 2-7-16 via TATA, bicyclic peptide, TATA scaffold) [BCY17333] = 8.30
Ac-CNAVLCSWARANSFC (linker 1-6-15 via TATA, bicyclic peptide, TATA scaffold) [BCY17663] = 8.28
ACNAVLCSWARANS[Phe(2-F)]CA (linker 2-7-16 via TATA, bicyclic peptide, TATA scaffold) [BCY17341] = 8.51

Please find the next binder below.
Exercise: Dear colleague, please send me the reported pKd for ACNAVLCSWARANS[Phe(3-Cl)]CA (linker 2-7-16 via TATA, bicyclic peptide, TATA scaffold) [BCY17339] when you can.
Key: 8.33
